experiment: Metabolic stability test: liver microsomal stability assay; format: in vitro ADME, mouse; conditions: mouse liver microsomes 0.5 mg protein/mL, compound 1 µM, absence of NADPH
Positions of bridges follow the written chain, without caps; N, C: chain ends. Non-standard residues stand in square brackets, D forms with d. Residues, ends and D or L forms follow the SMILES beside them. *: point of attachment. NMeF = CN[C@@H](Cc1ccccc1)C(=O)O; hPhe = N[C@@H](CCc1ccccc1)C(=O)O; NMeD = CN[C@@H](CC(=O)O)C(=O)O; NMeL = CN[C@@H](CC(C)C)C(=O)O; NMeV = CN[C@H](C(=O)O)C(C)C; d(β3hA) = C[C@@H](N)CC(=O)O; NMeA = CN[C@@H](C)C(=O)O; Piperidide = C1CCN(*)CC1; Abu = CC[C@H](N)C(=O)O; Sar = CNCC(=O)O; tBu = CC(C)(C)*
// reported Mouse Hepatic Microsome CLh,int NADPH(-) for each item listed
Report the value in µL/min/mg Protein with no unit label.

[
  {
    "molecule": "CC[C@@H]1NC(=O)CN(C)C(=O)[C@H]([C@@H](C)O)NC(=O)[C@H](CC(C)C)N(C)C(=O)[C@H](C(C)C)NC(=O)[C@H](Cc2ccccc2)N(C)C(=O)[C@H](C)N(C)C(=O)[C@@H](C)NC(=O)C[C@@H](C)NC(=O)[C@H](C(C)C)N(C)C(=O)[C@H](Cc2ccccc2)N(C)C(=O)[C@H](COC(C)(C)C)NC(=O)[C@H](CC(C)C)N(C)C1=O [pd128] (cyclo([Abu][NMeL]S(tBu)[NMeF][NMeV][d(β3hA)][dA][NMeA][NMeF]V[NMeL]T[Sar]))",
    "Mouse Hepatic Microsome CLh,int NADPH(-) (µL/min/mg Protein)": 11.3
  }
]

// query Fill blank: measured Mouse Hepatic Microsome CLh,int NADPH(-) of the molecule CC[C@H](C)[C@@H]1NC(=O)CN(C)C(=O)C[C@@H](C(=O)N2CCCCC2)N(C)C(=O)[C@H](C(C)C)NC(=O)[C@H](Cc2ccccc2)N(C)C(=O)[C@H](CC(C)C)N(C)C(=O)[C@H]([C@@H](C)O)NC(=O)[C@H](CC(C)C)N(C)C(=O)[C@H](CC(C)C)NC(=O)[C@H](C(C)C)N(C)C(=O)[C@H](C)N(C)C(=O)[C@H](CC(C)C)N(C)C(=O)[C@H](CCc2ccccc2)NC(=O)[C@H](CC(C)C)N(C)C1=O [pd092] ([Sar]I[NMeL][hPhe][NMeL][NMeA][NMeV]L[NMeL]T[NMeL][NMeF]V[NMeD]-Piperidide; lactam N-14) is ____.
// result 26.3
